System: biotinyl-Trp-oxazolone
protocol_notes: self-aminoacylation, catalytic enhancement (BWO) (fold over background); higher = more active; k-Seq, kA / k0A0; sequences stand for … in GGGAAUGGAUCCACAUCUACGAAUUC…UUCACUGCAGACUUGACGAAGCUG
This sample holds only a part of the variants without activity.
Assign class by self-aminoacylation: not lower than 4 means TRUE; lower than 4 means FALSE.

> print(dat)
                              sequence.entry       target.under.test  class.label
 1  AUUAACCUAGGUCAUCUGGUG [Fam2.2 aminoacylation ribozyme variant]  biotinyl-Trp-oxazolone        FALSE
 2  AUUCACCUAGGUCAUCGGUAG [Fam2.2 aminoacylation ribozyme variant]  biotinyl-Trp-oxazolone        FALSE
 3  CUAUUUCAAAGAAUCGGUCUG [Fam1A.1 aminoacylation ribozyme variant]  biotinyl-Trp-oxazolone        FALSE
 4  CUAUUUCAAACCAUCGGUCUG [Fam1A.1 aminoacylation ribozyme variant]  biotinyl-Trp-oxazolone        FALSE
 5  AUUCACCUAGGUCAUCGCGUU [Fam2.2 aminoacylation ribozyme variant]  biotinyl-Trp-oxazolone        FALSE
 6  AAGUUAGCUAAUCGUCGCAAG [Fam3.1 aminoacylation ribozyme variant]  biotinyl-Trp-oxazolone        FALSE
 7  ACACACUUCAACCAAUCGGUC [Fam1B.1 aminoacylation ribozyme variant]  biotinyl-Trp-oxazolone         TRUE
 8  AUUCAGCUAGGUCAACGGGUG [Fam2.2 aminoacylation ribozyme variant]  biotinyl-Trp-oxazolone        FALSE
 9  CCCCACUUCAAGCGAUCGGUC [Fam1B.1 aminoacylation ribozyme variant]  biotinyl-Trp-oxazolone         TRUE
10  AGCACCCUGGUCAUCGAGUGA [Fam2.1 aminoacylation ribozyme variant]  biotinyl-Trp-oxazolone         TRUE
11  ACUACUCUGGUCAUCGAGUGA [Fam2.1 aminoacylation ribozyme variant]  biotinyl-Trp-oxazolone         TRUE
12  AAGUUUGCUAAUAAUGGCAAG [Fam3.1 aminoacylation ribozyme variant]  biotinyl-Trp-oxazolone        FALSE
13  AAGUUUGCUGAUAGUCGUAAG [Fam3.1 aminoacylation ribozyme variant]  biotinyl-Trp-oxazolone        FALSE
14  CUACUUGAAACAAUCGGUCCG [Fam1A.1 aminoacylation ribozyme variant]  biotinyl-Trp-oxazolone        FALSE
15  GCCCACUUCAAGCAAUCGGUC [Fam1B.1 aminoacylation ribozyme variant]  biotinyl-Trp-oxazolone         TRUE

====

Test system: biotinyl-Trp-oxazolone
protocol_notes: self-aminoacylation, catalytic enhancement (BWO) (fold over background); higher = more active; k-Seq, kA / k0A0; sequences stand for … in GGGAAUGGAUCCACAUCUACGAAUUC…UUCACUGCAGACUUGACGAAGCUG
This sample holds only a part of the variants without activity.
property_measured: self-aminoacylation

> print(dat)
                              sequence.entry  reported.result
 1  AUUCCCCAGGUCAUCGAGUGA [Fam2.1 aminoacylation ribozyme variant]             6.65
 2  AGUACCCUGGUCACCGAGUGA [Fam2.1 aminoacylation ribozyme variant]             11.1
 3  AUUCACCUGUGUCAUCGGGUG [Fam2.2 aminoacylation ribozyme variant]             8.96
 4  AUUCAGCUGGGUCAUCGGGUG [Fam2.2 aminoacylation ribozyme variant]             4.72
 5  AAGAUAGCUAAUAGUCGCAAG [Fam3.1 aminoacylation ribozyme variant]             1.34
 6  CUACUUCAAAUCAUCGGUCUG [Fam1A.1 aminoacylation ribozyme variant]             0.65
 7  AUUGACCUAGGUCAUAGGGUG [Fam2.2 aminoacylation ribozyme variant]             1.81
 8  AUUACCAGGGUCAUCGAGUGA [Fam2.1 aminoacylation ribozyme variant]             5.56
 9  AUUACCUUGAUCAUCGAGUGA [Fam2.1 aminoacylation ribozyme variant]             10.7
10  GGUACCCUGGUCAUCGAGUGA [Fam2.1 aminoacylation ribozyme variant]             16.4
11  AUACUUCAAAUAAUCGGUCUG [Fam1A.1 aminoacylation ribozyme variant]             4.17
12  GUUCACCUAGGUCACCGGGUG [Fam2.2 aminoacylation ribozyme variant]             6.73
13  CCACACUUCAGGCAGUCGGUC [Fam1B.1 aminoacylation ribozyme variant]             1.32
14  AUUCACCUAGGGCAUCGGGUG [Fam2.2 aminoacylation ribozyme variant]              3.4
15  AUUACUCUGGUCCUCGAGUGA [Fam2.1 aminoacylation ribozyme variant]             4.62
16  CCACACUUCGAGCAAUCGAUC [Fam1B.1 aminoacylation ribozyme variant]            0.387
17  UUUCACCUAGGACAUCGGGUG [Fam2.2 aminoacylation ribozyme variant]             4.64
18  AAGUAUGCCAAUAGUCGCAAG [Fam3.1 aminoacylation ribozyme variant]             1.43
19  CUACUUCACACGAUCGGUCUG [Fam1A.1 aminoacylation ribozyme variant]            0.654
20  AUUACCCUGGUCAUCAACUGA [Fam2.1 aminoacylation ribozyme variant]            0.571
21  AAGUUUGCUAAUAGUAACAAG [Fam3.1 aminoacylation ribozyme variant]             1.41

====

Test system: biotinyl-Ile-oxazolone
protocol_notes: self-aminoacylation, catalytic enhancement (BIO) (fold over background); higher = more active; k-Seq, kA / k0A0; sequences stand for … in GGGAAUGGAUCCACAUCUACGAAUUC…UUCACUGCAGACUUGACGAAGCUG
Fewer inactive variants are shown than the library holds.
Assign class by self-aminoacylation: not lower than 2 means label 1; lower than 2 means label 0.

> print(dat)
                             sequence.entry  class.label
1  AUUACCCUGGUCAUAGACUGA [Fam2.1 aminoacylation ribozyme variant]      label 0
2  AUUACCCUGGCCAUAGAGUGA [Fam2.1 aminoacylation ribozyme variant]      label 1
3  AUUACCCAGGUCAUCAAGUGA [Fam2.1 aminoacylation ribozyme variant]      label 0
4  CCACACUUCGAUCAAUCGGUC [Fam1B.1 aminoacylation ribozyme variant]      label 0
5  CCACACUUCAAGCAAUCGGGG [Fam1B.1 aminoacylation ribozyme variant]      label 0
6  AUUCACGAAGGUCAUCGGGUG [Fam2.2 aminoacylation ribozyme variant]      label 1

====

Catalogue of self-aminoacylation readings, one per entry.
System: biotinyl-Leu-oxazolone
protocol_notes: self-aminoacylation, catalytic enhancement (BLO) (fold over background); higher = more active; k-Seq, kA / k0A0; sequences stand for … in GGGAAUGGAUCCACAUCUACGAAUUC…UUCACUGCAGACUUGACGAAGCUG
Fewer inactive variants are shown than the library holds.
property_measured: self-aminoacylation

> print(dat)
                             sequence.entry  reported.result
1  AUUACCUUGGUCAUCGCGUGA [Fam2.1 aminoacylation ribozyme variant]             19.2
2  AUCCAACUAGGUCAUCGGGUG [Fam2.2 aminoacylation ribozyme variant]             9.99
3  AAGUUUGCUGAUUGUCGCAAG [Fam3.1 aminoacylation ribozyme variant]             1.11
4  AAGUUUGCUAUUAGUCGCAAG [Fam3.1 aminoacylation ribozyme variant]             0.76
5  UUUACCCUUGUCAUCGAGUGA [Fam2.1 aminoacylation ribozyme variant]             6.18
6  AUUCAUCUAGGCCAUCGGGUG [Fam2.2 aminoacylation ribozyme variant]             5.22

====

Test system: biotinyl-Ile-oxazolone
protocol_notes: self-aminoacylation, catalytic enhancement (BIO) (fold over background); higher = more active; k-Seq, kA / k0A0; sequences stand for … in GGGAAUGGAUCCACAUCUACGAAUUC…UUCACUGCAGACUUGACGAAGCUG
Fewer inactive variants are shown than the library holds.
property_measured: self-aminoacylation

> print(dat)
                             sequence.entry  reported.result
1  CCACUCUGCAAGCAAUCGGUC [Fam1B.1 aminoacylation ribozyme variant]             1.24
2  AUUGACCUAGGUCAUAGGGUG [Fam2.2 aminoacylation ribozyme variant]             1.58
3  ACUCUCCUAGGUCAUCGGGUG [Fam2.2 aminoacylation ribozyme variant]             5.49
4  CUACACUUCCAGCAAUCGGUC [Fam1B.1 aminoacylation ribozyme variant]             1.07
5  CCACAGUUCAAUCAAUCGGUC [Fam1B.1 aminoacylation ribozyme variant]            0.806
6  AAGAUUGCUAAUAGUCGGAAG [Fam3.1 aminoacylation ribozyme variant]              1.4
